organism: Rattus norvegicus; test: Open TG-GATES - Regimen: Daily Repeat; type: toxicity, organism-based, Sprague-Dawley; parameters: regimen Daily Repeat, gender Male, age 6 weeks; settings: in vivo, po, 10 mg/kg, […], tissue Plasma, route gavage, dose level Low, time 28 day
So I've got a bunch of compounds here, and I need their K values.
Dear colleague, please return just the value in meq/L, with no unit written.

# query: K of entry CN(C)CCN(Cc1cccs1)c1ccccn1
3.9

# query: K of entry CC(C)OC(=O)C(C)(C)Oc1ccc(C(=O)c2ccc(Cl)cc2)cc1 [FENOFIBRATE]
4.2

# query: K of entry CN(C)CCCN1c2ccccc2CCc2ccccc21 [IMIPRAMINE]
3.8

# query: K of entry CC1=C(/C=C/C(C)=C/C=C/C(C)=C/CO)C(C)(C)CCC1 [RETINOL]
4.1
